target of assay: Sut1 (UniProt P53032)
Sequence: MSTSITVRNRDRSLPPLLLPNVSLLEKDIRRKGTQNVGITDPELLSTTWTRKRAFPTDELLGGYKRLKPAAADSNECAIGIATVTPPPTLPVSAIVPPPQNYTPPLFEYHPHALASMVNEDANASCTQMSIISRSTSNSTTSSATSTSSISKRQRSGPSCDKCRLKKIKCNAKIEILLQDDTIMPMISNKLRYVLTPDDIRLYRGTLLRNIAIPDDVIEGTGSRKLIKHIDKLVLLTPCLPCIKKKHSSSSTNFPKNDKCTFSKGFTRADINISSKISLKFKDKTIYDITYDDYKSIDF
test summary: PBM E-score (8-mer binding enrichment) (E-score (-0.5 to 0.5)); higher = stronger / more preferred TF binding
condition description: protein concentration: 200 nM; construct: GST-full length
In all, about 33,000 sequences were measured (“E-score (-0.5 to 0.5)”: median about -0.017, highest 2% from about 0.3 on). The list comes from a sample in which the highest values are over-represented; it also holds close analogues and randomly drawn sequences.
Kindly return t if reported PBM E-score is no lower than 0.1; return f if it is lower.

Could you tell me if the measured PBM E-score of "AAAATAGC" reaches 0.1 or more?
f

Does the sequence "AACAAATT" have recorded PBM E-score that is 0.1 or more?
t

Does the reported PBM E-score for "AAGAAAAA" fall at or above the 0.1 mark?
t

Is PBM E-score at least 0.1? Consider "GTCACGAC"
f

Hi team, for "AACTTCTA" , is the recorded PBM E-score at or above 0.1?
t

Quick check, PBM E-score >= 0.1? "AATGCTTG"
f

Is PBM E-score at least 0.1? Consider "TAAAATAA"
t

Kindly determine if PBM E-score recorded for "GAACCAGA" is above or exactly 0.1.
f

Test whether the sequence "ATCAATTA" records PBM E-score of 0.1 or higher.
t

Decide: PBM E-score of "AAGAAAAT" >= 0.1?
t

Is the recorded value of PBM E-score equal to or greater than 0.1 for this sequence? "AAGAAAAG"
t

Confirm if PBM E-score reported for the sequence "ATTCCGAA" is 0.1 or above.
t

Quick check, PBM E-score >= 0.1? "AGAAATTC"
t

Confirm if PBM E-score reported for the sequence "GGAAATTA" is 0.1 or above.
t

Is PBM E-score for "ATTCCGAG" at or above 0.1?
t

Is PBM E-score for "ATTCCGTA" at or above 0.1?
t

Hi team, for "AAGAAATA" , is the recorded PBM E-score at or above 0.1?
t

State whether the measured PBM E-score reaches 0.1, counting equality as reaching it, for "ATTCCAAG"
f

Please tell me: is the sequence "ATCAATTC" at or over 0.1 in terms of PBM E-score?
t

* * *

Hi there, I'd appreciate the recorded PBM E-score for every entry that follows.
target of assay: Sut1 (UniProt P53032)
Sequence: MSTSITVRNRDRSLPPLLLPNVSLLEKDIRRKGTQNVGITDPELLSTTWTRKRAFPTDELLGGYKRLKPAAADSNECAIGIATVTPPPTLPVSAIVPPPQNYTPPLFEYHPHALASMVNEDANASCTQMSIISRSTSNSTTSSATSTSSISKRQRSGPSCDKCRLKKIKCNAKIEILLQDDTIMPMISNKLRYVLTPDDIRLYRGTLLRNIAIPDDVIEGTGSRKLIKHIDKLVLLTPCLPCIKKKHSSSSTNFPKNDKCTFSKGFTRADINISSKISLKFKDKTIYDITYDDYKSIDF
test summary: PBM E-score (8-mer binding enrichment) (E-score (-0.5 to 0.5)); higher = stronger / more preferred TF binding
condition description: protein concentration: 200 nM; construct: GST-full length
The full ranking holds about 33,000 sequences; the median of “E-score (-0.5 to 0.5)” is about -0.017, and the highest 2% start at about 0.3. The list comes from a sample in which the highest values are over-represented; it also holds close analogues and randomly drawn sequences.
Give bare numbers.

GAAACTAC = 0.145

Provide PBM E-score for all items below, preserving their order.
1. GAAACTCC
2. CAAACTCG
3. AGTTATAA
4. CGACGGAA
5. GAGGCTCC

1. 0.345
2. -0.013
3. 0.155
4. 0.116
5. 0.0186
